test: self-splicing fitness, log relative to wild type (ln ratio); higher = more splicing; Tetrahymena group I intron in knt gene, E. coli kanamycin selection, DiMSum; sequences stand for … in CUCUCU…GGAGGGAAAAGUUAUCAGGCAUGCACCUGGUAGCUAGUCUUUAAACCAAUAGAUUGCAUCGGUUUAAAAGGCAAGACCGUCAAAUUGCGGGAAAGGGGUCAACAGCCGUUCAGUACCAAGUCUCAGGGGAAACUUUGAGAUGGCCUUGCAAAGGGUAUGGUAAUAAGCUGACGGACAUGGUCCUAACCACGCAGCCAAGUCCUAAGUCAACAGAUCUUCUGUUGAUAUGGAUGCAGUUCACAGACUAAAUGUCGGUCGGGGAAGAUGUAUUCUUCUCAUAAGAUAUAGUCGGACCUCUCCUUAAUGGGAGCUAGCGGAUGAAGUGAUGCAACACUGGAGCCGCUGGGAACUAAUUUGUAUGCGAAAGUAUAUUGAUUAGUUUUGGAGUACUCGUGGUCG; details: 37 °C;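 further: selection with 25 µg/mL kanamycin versus none on LB agar overnight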
Binary classification by self-splicing fitness (ln), with -1 as an inclusive lower bound for 1 (yes); all other cases are 0 (no).

Task item: Given CUUGAGCAAUAUUACGGACG , state whether its self-splicing fitness (ln) is at least -1.
Reply: 1 (yes)

Task item: Given UUCCAGCAAUAUUACGUGAC , state whether its self-splicing fitness (ln) is at least -1.
Reply: 0 (no)

Task item: Given ACAUAGCAAUAUUACGCAAA , state whether its self-splicing fitness (ln) is at least -1.
Reply: 0 (no)

Task item: Given AGUGAGCAAUAUUACGGACA , state whether its self-splicing fitness (ln) is at least -1.
Reply: 0 (no)

Task item: Given UCUCAGCAAUAUUACGACCG , state whether its self-splicing fitness (ln) is at least -1.
Reply: 0 (no)

Task item: Given CCUCAGCAAUAUUACGAUAC , state whether its self-splicing fitness (ln) is at least -1.
Reply: 0 (no)

Task item: Given GGGAAGCAAUAUUACGUAUG , state whether its self-splicing fitness (ln) is at least -1.
Reply: 0 (no)

Task item: Given AAGGAGCAAUAUUACGCUUC , state whether its self-splicing fitness (ln) is at least -1.
Reply: 0 (no)

Task item: Given UUUAAGCAAUAUUACGUGCG , state whether its self-splicing fitness (ln) is at least -1.
Reply: 1 (yes)

Task item: Given CCAGAGCAAUAUUACGUCCG , state whether its self-splicing fitness (ln) is at least -1.
Reply: 1 (yes)

Task item: Given UGUAAGCAAUAUUACGGUCC , state whether its self-splicing fitness (ln) is at least -1.
Reply: 0 (no)

Task item: Given CGGUAGCAAUAUUACGAUGU , state whether its self-splicing fitness (ln) is at least -1.
Reply: 1 (yes)

###

Record form. Attribute: self-splicing fitness (ln). Fill in for each entry.
test: self-splicing fitness, log relative to wild type (ln ratio); higher = more splicing; Tetrahymena group I intron in knt gene, E. coli kanamycin selection, DiMSum; sequences stand for … in CUCUCU…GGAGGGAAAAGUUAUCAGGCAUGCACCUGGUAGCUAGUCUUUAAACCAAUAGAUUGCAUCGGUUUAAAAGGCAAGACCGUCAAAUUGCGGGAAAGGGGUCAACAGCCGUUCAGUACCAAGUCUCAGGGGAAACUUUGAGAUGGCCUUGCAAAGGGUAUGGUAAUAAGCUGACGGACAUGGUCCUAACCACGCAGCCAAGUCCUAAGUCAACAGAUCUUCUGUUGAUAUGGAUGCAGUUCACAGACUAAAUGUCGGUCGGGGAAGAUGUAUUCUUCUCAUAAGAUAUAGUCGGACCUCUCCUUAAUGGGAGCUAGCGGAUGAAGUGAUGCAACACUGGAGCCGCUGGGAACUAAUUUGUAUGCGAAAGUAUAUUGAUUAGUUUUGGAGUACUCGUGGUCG; conditions: 37 °C
Returns: the value as a bare number; no unit string appended.

Noted for GAGCAGCAAUAUUACGGGAU : its self-splicing fitness (ln) reads -3.1

Noted for CCGUAGCAAUAUUACGUCGU : its self-splicing fitness (ln) reads -1.25

Noted for UUCAAGCAAUAUUACGCAAU : its self-splicing fitness (ln) reads -1.99

Noted for CGACAGCAAUAUUACGCAGA : its self-splicing fitness (ln) reads -2.06

Noted for GCAAAGCAAUAUUACGACAG : its self-splicing fitness (ln) reads -2.68

Noted for AUUCAGCAAUAUUACGGCAU : its self-splicing fitness (ln) reads 1.01

Noted for GCUCAGCAAUAUUACGAUAU : its self-splicing fitness (ln) reads 0.0543

Noted for UGUCAGCAAUAUUACGGCUU : its self-splicing fitness (ln) reads -0.319

Noted for GUGGAGCAAUAUUACGUGGA : its self-splicing fitness (ln) reads -3.07

Noted for AACAAGCAAUAUUACGAGCU : its self-splicing fitness (ln) reads -0.357

Noted for CAUCAGCAAUAUUACGUAAU : its self-splicing fitness (ln) reads -1.4

Noted for GCCAAGCAAUAUUACGGGGA : its self-splicing fitness (ln) reads 0.0408

Noted for UUAGAGCAAUAUUACGGAGA : its self-splicing fitness (ln) reads -0.654

Noted for AACUAGCAAUAUUACGCUAG : its self-splicing fitness (ln) reads -2.81

Noted for UAGGAGCAAUAUUACGUUGG : its self-splicing fitness (ln) reads -1.27

Noted for CAAAAGCAAUAUUACGUAAG : its self-splicing fitness (ln) reads 0.0644

Noted for CUAUAGCAAUAUUACGUUAA : its self-splicing fitness (ln) reads -3.36

Noted for CCUGAGCAAUAUUACGGAAA : its self-splicing fitness (ln) reads -1.92

Noted for GGCAAGCAAUAUUACGGUCU : its self-splicing fitness (ln) reads -0.575

Noted for UGGGAGCAAUAUUACGGCUA : its self-splicing fitness (ln) reads -0.59

Noted for UCCGAGCAAUAUUACGUCCA : its self-splicing fitness (ln) reads -2.37

Noted for GUUAAGCAAUAUUACGUACG : its self-splicing fitness (ln) reads -0.662

Noted for CGACAGCAAUAUUACGCAAU : its self-splicing fitness (ln) reads -2.81

Noted for AAUAAGCAAUAUUACGUGCC : its self-splicing fitness (ln) reads 0.782

Noted for AAACAGCAAUAUUACGGUAA : its self-splicing fitness (ln) reads -0.892

Noted for GGCGAGCAAUAUUACGCUAG : its self-splicing fitness (ln) reads -2.82

Noted for CUCCAGCAAUAUUACGGAAG : its self-splicing fitness (ln) reads -3.14

Noted for CCCUAGCAAUAUUACGUUAA : its self-splicing fitness (ln) reads -3.16

Noted for UGUAAGCAAUAUUACGAGUG : its self-splicing fitness (ln) reads -0.484

Noted for UACAAGCAAUAUUACGAUCG : its self-splicing fitness (ln) reads 0.983

Noted for CAUCAGCAAUAUUACGCUGA : its self-splicing fitness (ln) reads -2.24

Noted for CACAAGCAAUAUUACGGGCC : its self-splicing fitness (ln) reads -2.01

Noted for UACGAGCAAUAUUACGGUCA : its self-splicing fitness (ln) reads -0.173

Noted for GCGGAGCAAUAUUACGGACA : its self-splicing fitness (ln) reads -2.26

Noted for UGCUAGCAAUAUUACGCUUG : its self-splicing fitness (ln) reads -0.96

Noted for UAUUAGCAAUAUUACGUGUG : its self-splicing fitness (ln) reads -0.549

Noted for GCAAAGCAAUAUUACGCACA : its self-splicing fitness (ln) reads -0.182

Noted for ACACAGCAAUAUUACGGCUU : its self-splicing fitness (ln) reads -0.0695

Noted for GCUAAGCAAUAUUACGUUCA : its self-splicing fitness (ln) reads -0.54

Noted for AGGGAGCAAUAUUACGAGCA : its self-splicing fitness (ln) reads -2.64

Noted for UUUCAGCAAUAUUACGGUCU : its self-splicing fitness (ln) reads -0.667

Noted for ACAGAGCAAUAUUACGACUU : its self-splicing fitness (ln) reads -1.52

Noted for GUAGAGCAAUAUUACGAUGC : its self-splicing fitness (ln) reads -0.434

Noted for GUUCAGCAAUAUUACGGCUA : its self-splicing fitness (ln) reads -0.232

Noted for UUCGAGCAAUAUUACGAUUA : its self-splicing fitness (ln) reads -0.875

Noted for GCAGAGCAAUAUUACGUCCA : its self-splicing fitness (ln) reads -2.98

Noted for CGACAGCAAUAUUACGGGAA : its self-splicing fitness (ln) reads -1.92

Noted for AAGGAGCAAUAUUACGGCGG : its self-splicing fitness (ln) reads -2.12

Noted for AACAAGCAAUAUUACGAAUC : its self-splicing fitness (ln) reads -2.24

Noted for UUGGAGCAAUAUUACGCUUA : its self-splicing fitness (ln) reads -2.35

Noted for GGCUAGCAAUAUUACGUCAC : its self-splicing fitness (ln) reads -1.01

Noted for AAAAAGCAAUAUUACGCGUG : its self-splicing fitness (ln) reads -1.18

Noted for UUGAAGCAAUAUUACGUCGA : its self-splicing fitness (ln) reads 0.333

Noted for CGUAAGCAAUAUUACGCGAA : its self-splicing fitness (ln) reads -3.88

Noted for GAUAAGCAAUAUUACGGUUU : its self-splicing fitness (ln) reads -0.908

Noted for UCUCAGCAAUAUUACGGGUA : its self-splicing fitness (ln) reads -0.0376

Noted for GGGGAGCAAUAUUACGACGU : its self-splicing fitness (ln) reads -0.094
